Target: T1, human proprotein convertase subtilisin/kexin type 9, his tagged antigen (Homo sapiens, UniProt Q8NBP7)
T1 construct: human PCSK9; also called hPCSK9; PCSK9; source: bought: Sinobiological, China, Cat# 29698-H08H
T1 sequence (Q8NBP7 31-692): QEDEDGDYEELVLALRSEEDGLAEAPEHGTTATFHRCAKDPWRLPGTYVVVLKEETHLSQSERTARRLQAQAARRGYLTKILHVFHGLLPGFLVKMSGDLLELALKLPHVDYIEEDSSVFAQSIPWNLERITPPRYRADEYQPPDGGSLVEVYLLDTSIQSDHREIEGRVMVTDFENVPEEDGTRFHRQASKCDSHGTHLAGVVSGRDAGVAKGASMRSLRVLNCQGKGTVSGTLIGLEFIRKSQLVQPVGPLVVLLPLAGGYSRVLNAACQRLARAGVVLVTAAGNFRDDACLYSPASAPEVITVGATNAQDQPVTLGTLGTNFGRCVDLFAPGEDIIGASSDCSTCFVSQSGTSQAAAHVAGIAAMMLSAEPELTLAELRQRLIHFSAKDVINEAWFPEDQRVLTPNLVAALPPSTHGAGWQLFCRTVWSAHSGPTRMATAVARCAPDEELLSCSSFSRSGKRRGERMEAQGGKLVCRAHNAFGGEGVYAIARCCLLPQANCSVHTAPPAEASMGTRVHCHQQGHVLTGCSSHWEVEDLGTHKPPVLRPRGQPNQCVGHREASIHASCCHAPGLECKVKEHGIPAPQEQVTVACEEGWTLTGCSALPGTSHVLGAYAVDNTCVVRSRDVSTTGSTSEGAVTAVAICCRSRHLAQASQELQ
Assay: SPR; hPCSK9-his on CM5 chip (~800 RU); 6 or 7-point two-fold dilutions of the VHH-based proteins injected; 25 °C; global fit with floating Rmax; Biacore T200
Conditions: both partners purified
Measurement type: Kd

>>> reported_result("VHH-G8 (VHH, llama anti-hPCSK9 VHH from an immune phage library; source: E. coli, supernatant of TES lysate (screening); E. coli induced by IPTG, and Pichia pastoris X33, purified (Histrap FF column)) VHH: DVQLVESGGGSVQAGGSLTLSCVVSGYRGQKICTGWFRQFPGMEREAVARILPRGPNTQYTDSVKGRFTISQDAAKNTVNLQMSSLKPKDTAMYYCAQGWGGASDWALQPRRYNYWGQGTQVTVSS")
"0.0731 µM"
>>> reported_result("VHH-A6 (VHH, llama anti-hPCSK9 VHH from an immune phage library; source: E. coli, supernatant of TES lysate (screening); E. coli induced by IPTG, and Pichia pastoris X33, purified (Histrap FF column)) VHH: PGAAAGVGGGSVQAGGSLRLSCAASRYTDRTRCIAWFRQVPGKEREGVACLDRAGGQSAYADSAKGRFTVSQDNAGNTVYLQMDNLIPEDSAMYYCAAAGVGQWYTCLQKFIRDKRSFANWGQGTQVTVSS")
"0.029 µM"
>>> reported_result("VHH-H12 (VHH, llama anti-hPCSK9 VHH from an immune phage library; source: E. coli, supernatant of TES lysate (screening); E. coli induced by IPTG, and Pichia pastoris X33, purified (Histrap FF column)) VHH: GGGLVQAGGSLRLSCAASRSTFSGYAMAWFRQAPGKEREFVACIEREIPGHPAWSGLTYYADSKKGRFTISRDNAKNTVYLQMNSLKPEDTAVYYCAAGLKYPAQKHYDYDYWGQGTQVTVPS")
"0.704 µM"
>>> reported_result("VHH-B11 (VHH, llama anti-hPCSK9 VHH from an immune phage library; 17 kDa on SDS-PAGE; also called monovalent VHH-B11; monovalency VHH-B11; source: E. coli, supernatant of TES lysate (screening); E. coli induced by IPTG, and Pichia pastoris X33, purified (Histrap FF column)) VHH: EVQLVESGGGSVQAGGSLRLSCTVSGYTYSSNCMGWFRQAPGKEHEGVASIYIGGGSTYYADSVKGRFTISQDNAKNTVYLQMNSLKPEDTAMYYCAVGCQGLVDFGYWDQGTQVTVSS")
"0.00869 µM"
